// reported IC50 for each item listed
Tested on: D-392MG
Assay: cells
Assay type: functional, cell-based, Homo sapiens
Conditions: Homo sapiens, D-392MG

Examples with answers:
Exercise: Reported IC50, molecule C[C@]1(O)C[C@@H](c2nc(-c3ccc4ccc(-c5ccccc5)nc4c3)c3c(N)nccn32)C1 : ____
Solution: > 2560 nM

Exercise: Reported IC50, molecule COc1cc(F)c(F)c(Nc2ccc(I)cc2F)c1NS(=O)(=O)C1(CC(O)CO)CC1 (centres undefined) : ____
Solution: > 5000 nM

Exercise: Reported IC50, molecule CCC1=C[C@@H]2CN(C1)Cc1c([nH]c3ccccc13)[C@@](C(=O)OC)(c1cc3c(cc1OC)N(C)[C@H]1[C@@](O)(C(=O)OC)[C@H](OC(C)=O)[C@]4(CC)C=CCN5CC[C@]31[C@@H]54)C2 : ____
Solution: > 64 nM

Exercise: Reported IC50, molecule Cc1cnc(-c2cnc(NCCNc3ccc(C#N)cn3)nc2-c2ccc(Cl)cc2Cl)[nH]1 : ____
Solution: > 2560 nM

Exercise: Reported IC50, molecule CCc1nc(N)nc(N)c1-c1ccc(Cl)cc1 : ____
Solution: > 20000 nM

Others:
Exercise: Reported IC50, molecule COc1cc([C@@H]2c3cc4c(cc3[C@@H](O[C@@H]3O[C@@H]5CO[C@@H](C)O[C@H]5[C@H](O)[C@H]3O)[C@H]3COC(=O)[C@H]23)OCO4)cc(OC)c1O [ETOPOSIDE] : ____
Solution: > 16000 nM
